target: PD-1/PD-L1 interaction (Homo sapiens, UniProt Q9NZQ7); construct: Jurkat cells (PD-1 plus NFAT-luciferase); test: PD-1/PD-L1 NFAT Reporter Assay; conditions: co-culture of PD-L1 expressing CHO cells and PD-1 overexpressing Jurkat cells, 6 hrs, NFAT luciferase
Sequence (Q9NZQ7 19-290): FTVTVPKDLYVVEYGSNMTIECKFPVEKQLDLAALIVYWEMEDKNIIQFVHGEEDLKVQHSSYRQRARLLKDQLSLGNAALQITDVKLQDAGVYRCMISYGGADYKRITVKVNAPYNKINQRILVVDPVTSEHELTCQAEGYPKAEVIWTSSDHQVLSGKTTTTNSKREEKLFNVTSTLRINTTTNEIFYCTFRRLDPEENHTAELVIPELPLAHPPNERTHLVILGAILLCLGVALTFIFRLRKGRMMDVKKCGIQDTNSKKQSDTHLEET
pEC50: −log10 of the molar value.
Listed here are compounds together with their documented pEC50.

Completed entries (count: 5):
compound	pEC50
COc1nc(-c2cccc(-c3cccc(NC(=O)c4ccnn(C)c4=O)c3Cl)c2Cl)ccc1CNC[C@@H]1CCC(=O)N1 [Compound B-2]	7.00 to 8.00
COc1nc(-c2cccc(-c3cccc(NC(=O)c4ccnn(C)c4=O)c3C)c2Cl)ccc1CN[C@@H]1CCOC[C@@H]1O [Compound C-52]	< 5.30
COc1nc(-c2cccc(-c3cccc(NC(=O)c4ccnn(C)c4=O)c3Cl)c2Cl)ccc1CNCC(C)(C)O [Compound C-5]	7.00 to 8.00
COc1nc(-c2cccc(-c3cccc(NC(=O)c4ccnn(C)c4=O)c3C)c2Cl)ccc1CNC[C@@H]1CCC(=O)N1 [Compound B-6]	≥ 8.00
COc1nc(-c2cccc(-c3cccc(NC(=O)c4ccnn(C)c4=O)c3Cl)c2Cl)ccc1CNCCCC(=O)O [Compound C-25]	7.00 to 8.00

stdin: State its pEC50: COc1nc(-c2cccc(-c3cccc(NC(=O)c4ccnn(C)c4=O)c3Cl)c2Cl)ccc1CN[C@@H](CO)C(=O)O [Compound C-47]
stdout: 7.00 to 8.00

stdin: State its pEC50: COC(=O)C1(F)CN(Cc2ccc(-c3cccc(-c4cccc(NC(=O)c5ccnn(C)c5=O)c4Cl)c3Cl)nc2OC)C1 [Compound C-18]
stdout: 7.00 to 8.00

###

target: PD-1/PD-L1 interaction (Homo sapiens); construct: Jurkat cells (PD-1 plus NFAT-luciferase); assay: PD-1/PD-L1 NFAT Reporter Assay; details: co-culture of PD-L1 expressing CHO cells and PD-1 overexpressing Jurkat cells, 6 hrs, NFAT luciferase
pEC50: −log10 of the molar value.
parameter measured: pEC50

Completed entries (count: 5):
1) COC(=O)C1(F)CN(Cc2ccc(-c3cccc(-c4cccc(NC(=O)c5ccnn(C)c5=O)c4C)c3Cl)nc2OC)C1 7.00 to 8.00
2) COc1nc(-c2cccc(-c3cccc(NC(=O)c4ccnn(C)c4=O)c3Cl)c2Cl)ncc1CN[C@@H]1CCOC[C@@H]1O ≥ 8.00
3) CCOC(=O)CCNCc1ccc(-c2cccc(-c3cccc(NC(=O)c4ccnn(C)c4=O)c3Cl)c2Cl)nc1OC 7.00 to 8.00
4) COc1nc(-c2cccc(-c3cccc(NC(=O)c4ccnn(C)c4=O)c3Cl)c2Cl)c(F)cc1CN[C@@H]1CCOC[C@@H]1O ≥ 8.00
5) COc1nc(-c2cccc(-c3cccc(NC(=O)c4ccnn(C)c4=O)c3Cl)c2Cl)ccc1CN1CC(O)(C(=O)O)C1 7.00 to 8.00

Could you now look at the following compound, please?
stdin: State its pEC50: COC(=O)C1CN(Cc2cc(F)c(-c3cccc(-c4cccc(NC(=O)c5ccnn(C)c5=O)c4Cl)c3Cl)nc2OC)C1
stdout: 6.00 to 7.00

###

biological target: PD-1/PD-L1 interaction (Homo sapiens); construct: Jurkat cells (PD-1 plus NFAT-luciferase); assay: PD-1/PD-L1 NFAT Reporter Assay; conditions: co-culture of PD-L1 expressing CHO cells and PD-1 overexpressing Jurkat cells, 6 hrs, NFAT luciferase
pEC50: −log10 of the molar value.
Listed here are molecules together with their documented pEC50.

Completed entries (count: 5):
molecule	parameter measured	result
COc1nc(-c2cccc(-c3cccc(NC(=O)c4ccnn(C)c4=O)c3C)c2Cl)ccc1CNC1CCN(C(C)=O)C[C@@H]1O (stereo in doubt) [Compound C-69]	pEC50	≥ 8.00
COc1nc(-c2cccc(-c3cccc(NC(=O)c4ccnn(C)c4=O)c3C)c2C)ccc1CN[C@@H]1CCOC[C@@H]1O [Compound C-71]	pEC50	≥ 8.00
COc1nc(-c2cccc(-c3cccc(NC(=O)c4ccnn(C)c4=O)c3Cl)c2Cl)ccc1CN1CC(CC(=O)O)C1 [Compound C-42]	pEC50	7.00 to 8.00
COc1nc(-c2cccc(-c3cccc(NC(=O)c4ccnn(C)c4=O)c3Cl)c2Cl)ccc1CN1CCC[C@@H]1CC(=O)O [Compound C-33]	pEC50	7.00 to 8.00
COc1nc(-c2cccc(-c3cccc(NC(=O)c4ccnn(C)c4=O)c3Cl)c2Cl)ccc1CN1C[C@@H](C(=O)O)C(C)(C)C1 [Compound C-48]	pEC50	6.00 to 7.00

Could you now look at the following molecule, please?
stdin: State its pEC50: COc1nc(-c2cccc(-c3cccc(NC(=O)c4ccnn(C)c4=O)c3Cl)c2Cl)ccc1CN[C@H](C(=O)O)C(C)C [Compound C-28]
stdout: 6.00 to 7.00

###

Molecular target: PDL1/PD1 (Homo sapiens, UniProt Q9NZQ7)
Assay: PDL1/PD1 Binding Assay
Conditions: PDL1-6×His 0.3 nM, PD1-Fc-Avi-Biotin 2.5 nM, Acceptor/Donor beads; read-out: PD-1/PD-L1 PPI IC50
Procedure: Compounds to be tested were serially diluted in DMSO, and further diluted in assay buffer (25 mM Hepes pH 7.4, 150 mM NaCl, 0.005% Tween 20, BSA 0.01%). Diluted compounds were added to the wells with final concentration of DMSO at 1%. […] The plates were sealed with foil and incubated in the dark for additional 1 h or overnight before reading on an Envision reader. The IC50 values were determined by fitting the curves using a four-parameter equation in Graphpad Prism 8.
parameter measured: IC50

stdin: Fill: IC50 (PDL1/PD1 (Homo sapiens, UniProt Q9NZQ7)) for this compound CCOC(=O)C1CN(Cc2ccc(-c3cccc(-c4cccc(NC(=O)c5ccnn(C)c5=O)c4C)c3Cl)nc2OC)C1 [Compound C-53]
stdout: ≤ 10 nM

stdin: Fill: IC50 (PDL1/PD1 (Homo sapiens, UniProt Q9NZQ7)) for this compound COc1nc(-c2cccc(-c3cccc(NC(=O)c4ccnn(C)c4=O)c3Cl)c2Cl)ccc1CN1CCCC[C@H]1C(=O)O [Compound C-10]
stdout: ≤ 10 nM

stdin: Fill: IC50 (PDL1/PD1 (Homo sapiens, UniProt Q9NZQ7)) for this compound COc1nc(-c2cccc(-c3cccc(NC(=O)c4ccnn(C)c4=O)c3C)c2Cl)ccc1CNC1CCN(C(C)=O)C[C@@H]1O (stereo in doubt) [Compound C-69]
stdout: ≤ 10 nM

stdin: Fill: IC50 (PDL1/PD1 (Homo sapiens, UniProt Q9NZQ7)) for this compound COc1nc(-c2cccc(-c3cccc(NC(=O)c4ccnn(C)c4=O)c3Cl)c2Cl)ccc1CN[C@@H]1CN(C(C)=O)C[C@H]1O [Compound C-49]
stdout: ≤ 10 nM

stdin: Fill: IC50 (PDL1/PD1 (Homo sapiens, UniProt Q9NZQ7)) for this compound COc1nc(-c2cccc(-c3cccc(NC(=O)c4ccnn(C)c4=O)c3C)c2C)ccc1CNC(C)(C)CO [Compound C-73]
stdout: ≤ 10 nM

###

biological target: PD-1/PD-L1 interaction (Homo sapiens); construct: Jurkat cells (PD-1 plus NFAT-luciferase); assay: PD-1/PD-L1 NFAT Reporter Assay; details: co-culture of PD-L1 expressing CHO cells and PD-1 overexpressing Jurkat cells, 6 hrs, NFAT luciferase
pEC50: −log10 of the molar value.
parameter measured: pEC50

stdin: State its pEC50: COc1nc(-c2cccc(-c3cccc(NC(=O)c4ccnn(C)c4=O)c3Cl)c2Cl)ccc1CN1CC(F)(C(=O)O)C1 [Compound C-19]
stdout: 7.00 to 8.00

stdin: State its pEC50: CCOC(=O)C1CN(Cc2ccc(-c3cccc(-c4cccc(NC(=O)c5ccnn(C)c5=O)c4Cl)c3Cl)nc2OC)C1 [Compound C-13]
stdout: 7.00 to 8.00

stdin: State its pEC50: COc1nc(-c2cccc(-c3cccc(NC(=O)c4ccnn(C)c4=O)c3Cl)c2Cl)ccc1CN1CCC[C@H]1CC(=O)O [Compound C-34]
stdout: 7.00 to 8.00

stdin: State its pEC50: COc1nc(-c2cccc(-c3cccc(NC(=O)c4ccn[nH]c4=O)c3Cl)c2Cl)cnc1CN1CC2(CCC(=O)N2)C1 [Compound A-2]
stdout: 7.00 to 8.00

stdin: State its pEC50: COc1nc(-c2cccc(-c3cccc(NC(=O)c4ccnn(C)c4=O)c3C)c2C)ccc1CN1C[C@@H](O)[C@@H]1C [Compound C-74]
stdout: < 5.30

stdin: State its pEC50: COc1nc(-c2cccc(-c3cccc(NC(=O)c4ccnn(C)c4=O)c3C)c2Cl)ccc1CN1CC2(C1)CN(C(C)=O)C2 [Compound C-64]
stdout: 7.00 to 8.00

stdin: State its pEC50: COc1nc(-c2cccc(-c3cccc(NC(=O)c4ccnn(C)c4=O)c3Cl)c2Cl)ccc1CN1CC(C(=O)O)C1 [Compound C-9]
stdout: ≥ 8.00

stdin: State its pEC50: COc1nc(-c2cccc(-c3cccc(NC(=O)c4ccnn(C)c4=O)c3Cl)c2Cl)ccc1CNCCO [Compound C-2]
stdout: 7.00 to 8.00

stdin: State its pEC50: COc1nc(-c2cccc(-c3cccc(NC(=O)c4cc(Cl)n[nH]c4=O)c3Cl)c2Cl)cnc1CN1CC2(CCC(=O)N2)C1 [Compound A-3]
stdout: 6.00 to 7.00
